test system: 695427-040-R-J1-PDC complex spheroid viability; assay: Anticancer human tumor 695427-040-R-J1-PDC patient-derived colon adenocarcinoma cell line growth inhibition [RAS]; conditions: second compound 0.0949 µM; first compound 3.16 µM; stronger effect = lower value
reported.property: viability, T/C (%)
Express your answer in %, writing the number without its unit.

compound	viability, T/C [%]
NC1c2ccccc2OC12CCN(c1cnc3c(N4CCCc5ncccc54)n[nH]c3n1)CC2 (stereo not drawn) + CCn1c(-c2cccnc2C(C)OC)c2c3cc(ccc31)N1CCOC(CC(NC(=O)C(C(C)C)N(C)C(=O)C3(F)CCN(C(=O)C#CC(C)(C)N(C)C)CC3)C(=O)N3CCCC(N3)C(=O)OCC(C)(C)C2)C1	46.2
CC(=O)OC12COC1CC(O)C1(C)C(=O)C(O)C3=C(C)C(OC(=O)C(O)C(NC(=O)OC(C)(C)C)c4ccccc4)CC(O)(C(OC(=O)c4ccccc4)C21)C3(C)C (stereo not drawn) + CCn1c(-c2cccnc2C(C)OC)c2c3cc(ccc31)N1CCOC(CC(NC(=O)C(C(C)C)N(C)C(=O)C3(F)CCN(C(=O)C#CC(C)(C)N(C)C)CC3)C(=O)N3CCCC(N3)C(=O)OCC(C)(C)C2)C1	76

Please examine the following record next.
*Q* I would be grateful if you could share the reported viability, T/C for CC(Nc1ccc2c(c1)OCCn1cc(N3C(=O)OCC3C(F)F)nc1-2)C(N)=O (stereo not drawn) + CCn1c(-c2cccnc2C(C)OC)c2c3cc(ccc31)N1CCOC(CC(NC(=O)C(C(C)C)N(C)C(=O)C3(F)CCN(C(=O)C#CC(C)(C)N(C)C)CC3)C(=O)N3CCCC(N3)C(=O)OCC(C)(C)C2)C1 .
*A* 100

---

Test system: 695427-040-R-J1-PDC complex spheroid viability
Experiment: Anticancer human tumor 695427-040-R-J1-PDC cell line growth inhibition [RAS];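 also: viability read after seven days of drug exposure; 100% = DMSO vehicle control viability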
Conditions: second compound 10 µM; first compound 0.01 µM; stronger effect = lower value
Source text: RAS pathway inhibitors in Combinations in Complex Spheroids A high-throughput screen of multi-cell type tumor spheroids was designed to identify active combinations of RAS pathway inhibitors and targeted small molecules. Complex spheroids include a stromal component modeled by human endothelial cells (HUVEC) and fibroblasts modeled by human mesenchymal stem cells (MSCs). […] Compounds. […] If the clinical Cmax for an agent had not been determined, the highest concentration tested was 10 microM. […]
Rule: viability, T/C below 40% gives Satisfied, anything at or above gives Not satisfied.

Some solved cases for reference:
compound	assayed.system	group.label
C=CC(=O)Nc1cc(Nc2nccc(-c3cn(C)c4ccccc34)n2)c(OC)cc1N(C)CCN(C)C + C#Cc1c(F)ccc2cc(O)cc(-c3ncc4c(N5CC6CCC(C5)N6)nc(OCC56CCCN5CC(F)C6)nc4c3F)c12	695427-040-R-J1-PDC complex spheroid viability	Not satisfied
CC(C)n1nc(-c2ccc3oc(N)nc3c2)c2c(N)ncnc21 + C#Cc1c(F)ccc2cc(O)cc(-c3ncc4c(N5CC6CCC(C5)N6)nc(OCC56CCCN5CC(F)C6)nc4c3F)c12	695427-040-R-J1-PDC complex spheroid viability	Satisfied
CCN1CCN(Cc2ccc(Nc3ncc(F)c(-c4cc(F)c5nc(C)n(C(C)C)c5c4)n3)nc2)CC1 + C#Cc1c(F)ccc2cc(O)cc(-c3ncc4c(N5CC6CCC(C5)N6)nc(OCC56CCCN5CC(F)C6)nc4c3F)c12	695427-040-R-J1-PDC complex spheroid viability	Not satisfied
O=C(c1ccc(F)c(F)c1Nc1ccc(I)cc1F)N1CC(O)([C@@H]2CCCCN2)C1 + C#Cc1c(F)ccc2cc(O)cc(-c3ncc4c(N5CC6CCC(C5)N6)nc(OCC56CCCN5CC(F)C6)nc4c3F)c12	695427-040-R-J1-PDC complex spheroid viability	Satisfied

We next turn to a different compound, shown below.
*Q* # check: viability, T/C < 40% for Nc1ccn(C2OC(CO)C(O)C2(F)F)c(=O)n1 (stereo unspecified) + C#Cc1c(F)ccc2cc(O)cc(-c3ncc4c(N5CC6CCC(C5)N6)nc(OCC56CCCN5CC(F)C6)nc4c3F)c12
*A* Satisfied

---

Listed here are compounds together with their documented viability, T/C.
system: 695427-040-R-J1-PDC complex spheroid viability; assay: Anticancer human tumor 695427-040-R-J1-PDC cell line growth inhibition [RAS]; details: second compound 0.000949 µM; first compound 10 µM; stronger effect = lower value;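 also: viability read after seven days of drug exposure; 100% = DMSO vehicle control viability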
All answers are understood in %, so give the number only.

Example compounds with recorded viability, T/C:
compound	endpoint.result
CC1(O)CCCC1n1c(=O)c(C(F)F)cc2cnc(NC3CCN(S(C)(=O)=O)CC3)nc21 (centres undefined) + CCn1c(-c2cccnc2C(C)OC)c2c3cc(ccc31)N1CCOC(CC(NC(=O)C(C(C)C)N(C)C(=O)C3(F)CCN(C(=O)C#CC(C)(C)N(C)C)CC3)C(=O)N3CCCC(N3)C(=O)OCC(C)(C)C2)C1	79.4
CC(Nc1ccc2c(c1)OCCn1cc(N3C(=O)OCC3C(F)F)nc1-2)C(N)=O (centres undefined) + CCn1c(-c2cc(N3CCN(C)CC3)cnc2C(C)OC)c2c3cc(ccc31)-c1csc(n1)CC(NC(=O)C1CC1C)C(=O)N1CCCC(N1)C(=O)OCC(C)(C)C2	38
CC1(O)CCCC1n1c(=O)c(C(F)F)cc2cnc(NC3CCN(S(C)(=O)=O)CC3)nc21 (centres undefined) + CCn1c(-c2cc(N3CCN(C)CC3)cnc2C(C)OC)c2c3cc(ccc31)-c1csc(n1)CC(NC(=O)C1CC1C)C(=O)N1CCCC(N1)C(=O)OCC(C)(C)C2	74.5

Moving on to another compound below.
*Q* Entry CC(C)NCC(C(=O)N1CCN(c2ncnc3c2C(C)CC3O)CC1)c1ccc(Cl)cc1 (centres undefined) + CCn1c(-c2cccnc2C(C)OC)c2c3cc(ccc31)N1CCOC(CC(NC(=O)C(C(C)C)N(C)C(=O)C3(F)CCN(C(=O)C#CC(C)(C)N(C)C)CC3)C(=O)N3CCCC(N3)C(=O)OCC(C)(C)C2)C1 has what viability, T/C?
*A* 60.8

---

compounds and their reported viability, T/C
Test system: 695427-040-R-J1-PDC complex spheroid viability
Assay: Anticancer human tumor 695427-040-R-J1-PDC cell line growth inhibition [RAS];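 also: viability read after seven days of drug exposure; 100% = DMSO vehicle control viability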
Conditions: second compound 0.00949 µM; first compound 3.16 µM; stronger effect = lower value
Source text: RAS pathway inhibitors in Combinations in Complex Spheroids A high-throughput screen of multi-cell type tumor spheroids was designed to identify active combinations of RAS pathway inhibitors and targeted small molecules. Complex spheroids include a stromal component modeled by human endothelial cells (HUVEC) and fibroblasts modeled by human mesenchymal stem cells (MSCs). […] Compounds. […] If the clinical Cmax for an agent had not been determined, the highest concentration tested was 10 microM. […]
Report as a plain number; the unit % is understood.

# annotated cases, reported viability, T/C shown
compound	reported.property	endpoint.result
CC(=O)OC12COC1CC(O)C1(C)C(=O)C(O)C3=C(C)C(OC(=O)C(O)C(NC(=O)OC(C)(C)C)c4ccccc4)CC(O)(C(OC(=O)c4ccccc4)C21)C3(C)C (centres undefined) + CCn1c(-c2cccnc2C(C)OC)c2c3cc(ccc31)N1CCOC(CC(NC(=O)C(C(C)C)N(C)C(=O)C3(F)CCN(C(=O)C#CC(C)(C)N(C)C)CC3)C(=O)N3CCCC(N3)C(=O)OCC(C)(C)C2)C1	viability, T/C	78.5
Cc1nc(N2CCC3(CC2)COC(C)C3N)c(CO)nc1Sc1ccnc(N)c1Cl (centres undefined) + CCn1c(-c2cccnc2C(C)OC)c2c3cc(ccc31)N1CCOC(CC(NC(=O)C(C(C)C)N(C)C(=O)C3(F)CCN(C(=O)C#CC(C)(C)N(C)C)CC3)C(=O)N3CCCC(N3)C(=O)OCC(C)(C)C2)C1	viability, T/C	67.1
CCC(CC)c1cc(NC2CCC(N)C2)n2nccc2n1 (centres undefined) + CCn1c(-c2cccnc2C(C)OC)c2c3cc(ccc31)N1CCOC(CC(NC(=O)C(C(C)C)N(C)C(=O)C3(F)CCN(C(=O)C#CC(C)(C)N(C)C)CC3)C(=O)N3CCCC(N3)C(=O)OCC(C)(C)C2)C1	viability, T/C	13.3

Here is another compound to look at.
*Q* Report viability, T/C for CCC(CC)c1cc(NC2CCC(N)C2)n2nccc2n1 (centres undefined) + CCn1c(-c2cc(N3CCN(C)CC3)cnc2C(C)OC)c2c3cc(ccc31)-c1csc(n1)CC(NC(=O)C1CC1C)C(=O)N1CCCC(N1)C(=O)OCC(C)(C)C2 please.
*A* 10.7

---

Examples of compounds with documented viability, T/C follow.
tested on: 695427-040-R-J1-PDC complex spheroid viability; assay: Anticancer human tumor 695427-040-R-J1-PDC cell line growth inhibition [RAS]; settings: second compound 0.1 µM; first compound 1 µM; stronger effect = lower value;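 also: viability read after seven days of drug exposure; 100% = DMSO vehicle control viability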
Give a bare numeral; the unit % is implied.

compound	viability, T/C (%)
Nc1ccn(C2OC(CO)C(O)C2(F)F)c(=O)n1 (centres undefined) + C#Cc1c(F)ccc2cc(O)cc(-c3ncc4c(N5CC6CCC(C5)N6)nc(OCC56CCCN5CC(F)C6)nc4c3F)c12	67.2
Cc1nc(N2CCC3(CC2)COC(C)C3N)c(CO)nc1Sc1ccnc(N)c1Cl (centres undefined) + C#Cc1c(F)ccc2cc(O)cc(-c3ncc4c(N5CC6CCC(C5)N6)nc(OCC56CCCN5CC(F)C6)nc4c3F)c12	60.9
Cc1nc(N2CCC3(CC2)COC(C)C3N)c(CO)nc1Sc1ccnc(N)c1Cl (centres undefined) + C=CC(=O)N1CCN(c2nc(OCC3CCCN3C)nc3c(F)c(-c4nc(N)cc(C)c4C(F)(F)F)c(Cl)cc23)C(C)C1	67.5
C=CC(=O)Nc1cc(Nc2nccc(-c3cn(C)c4ccccc34)n2)c(OC)cc1N(C)CCN(C)C + C=CC(=O)N1CCN(c2nc(OCC3CCCN3C)nc3c(F)c(-c4nc(N)cc(C)c4C(F)(F)F)c(Cl)cc23)C(C)C1	33
CCN1CCN(Cc2ccc(Nc3ncc(F)c(-c4cc(F)c5nc(C)n(C(C)C)c5c4)n3)nc2)CC1 + C#Cc1c(F)ccc2cc(O)cc(-c3ncc4c(N5CC6CCC(C5)N6)nc(OCC56CCCN5CC(F)C6)nc4c3F)c12	96.3

*Q* Look up viability, T/C: CCN1CCN(Cc2ccc(Nc3ncc(F)c(-c4cc(F)c5nc(C)n(C(C)C)c5c4)n3)nc2)CC1 + C=CC(=O)N1CCN(c2nc(OCC3CCCN3C)nc3c(F)c(-c4nc(N)cc(C)c4C(F)(F)F)c(Cl)cc23)C(C)C1
*A* 110

*Q* Item under review: O=C(c1ccc(F)c(F)c1Nc1ccc(I)cc1F)N1CC(O)([C@@H]2CCCCN2)C1 + C=CC(=O)N1CCN(c2nc(OCC3CCCN3C)nc3c(F)c(-c4nc(N)cc(C)c4C(F)(F)F)c(Cl)cc23)C(C)C1 . Reported viability, T/C?
*A* 5.49

*Q* GET /values?readout=viability, T/C&item= CC(C)NCC(C(=O)N1CCN(c2ncnc3c2C(C)CC3O)CC1)c1ccc(Cl)cc1 (centres undefined) + C=CC(=O)N1CCN(c2nc(OCC3CCCN3C)nc3c(F)c(-c4nc(N)cc(C)c4C(F)(F)F)c(Cl)cc23)C(C)C1
*A* 83.6
